All figures here come from ChEMBL document CHEMBL1212914.

System: MCF-7 (Homo sapiens)
Experiment: Cytotoxicity against human MCF-7 cells after 72 hrs by MTT assay
Settings: MCF-7, 72 h
Assignment: determine reported IC50 for the given molecules.

## Task Please give the measured IC50 for this molecule: Cc1cc2c(C(C)C)c(O)c(O)c(/C=N/[C@@H](Cc3ccccc3)C(=O)O)c2c(O)c1-c1c(C)cc2c(C(C)C)c(O)c(O)c(/C=N/[C@@H](Cc3ccccc3)C(=O)O)c2c1O
## Result > 40 µM

## Task Would you mind telling me what IC50 value was observed for CO[C@@H](c1ccc([N+](=O)[O-])cc1)[C@H](CO)/N=C/c1c(O)c(O)c(C(C)C)c2cc(C)c(-c3c(C)cc4c(C(C)C)c(O)c(O)c(/C=N/[C@@H](CO)[C@@H](OC)c5ccc([N+](=O)[O-])cc5)c4c3O)c(O)c12 ?
## Result > 40 µM

## Task Given COC(=O)C(/N=C/c1c(O)c(O)c(C(C)C)c2cc(C)c(-c3c(C)cc4c(C(C)C)c(O)c(O)c(/C=N/C(C(=O)OC)c5c[nH]c6ccccc56)c4c3O)c(O)c12)c1c[nH]c2ccccc12 (stereo not given) , state its recorded IC50.
## Result > 40 µM

## Task Given Cc1cc2c(C(C)C)c(O)c(O)c(C=O)c2c(O)c1-c1c(C)cc2c(C(C)C)c(O)c(O)c(C=O)c2c1O , state its recorded IC50.
## Result 12.6 µM

## Task Bench note: what IC50 did Cc1cc2c(C(C)C)c(O)c(O)c(/C=N/C3C(=O)N4[C@@H]3SC(C)(C)[C@@H]4C(=O)O)c2c(O)c1-c1c(C)cc2c(C(C)C)c(O)c(O)c(/C=N/C3C(=O)N4[C@@H]3SC(C)(C)[C@@H]4C(=O)O)c2c1O (single isomer, unassigned) show?
## Result > 40 µM

* * *

Tested on: MCF7
Assay: Cytotoxicity against human MCF7 cells after 72 hrs by MTT assay
Type: functional, cell-based
Details: Homo sapiens, MCF7, 72 h
measured metric: IC50

## Task Need IC50, item CC1=C(C2=C(C)C(=O)c3c(c(/C=N/[C@@H]4C(=O)N5[C@@H]4SC(C)(C)[C@@H]5C(=O)[O-])c(O)c(O)c3C(C)C)C2=O)C(=O)c2c(/C=N/[C@@H]3C(=O)N4[C@@H]3SC(C)(C)[C@@H]4C(=O)[O-])c(O)c(O)c(C(C)C)c2C1=O.[Na+].[Na+]
## Result 29.1 µM

## Task Item under review: Cc1cc2c(C(C)C)c(O)c(O)c(/C=N/C3C(=O)N4[C@@H]3SC(C)(C)[C@@H]4C(=O)O)c2c(O)c1-c1c(C)cc2c(C(C)C)c(O)c(O)c(/C=N/C3C(=O)N4[C@@H]3SC(C)(C)[C@@H]4C(=O)O)c2c1O (single isomer, unassigned) . Reported IC50?
## Result > 40 µM

## Task So what does the record say about IC50 for COC(=O)C(/N=C/c1c(O)c(O)c(C(C)C)c2cc(C)c(-c3c(C)cc4c(C(C)C)c(O)c(O)c(/C=N/C(C(=O)OC)c5c[nH]c6ccccc56)c4c3O)c(O)c12)c1c[nH]c2ccccc12 (centres undefined) ?
## Result > 40 µM

## Task Entry CO[C@@H](c1ccc([N+](=O)[O-])cc1)[C@H](CO)/N=C/c1c(O)c(O)c(C(C)C)c2cc(C)c(-c3c(C)cc4c(C(C)C)c(O)c(O)c(/C=N/[C@@H](CO)[C@@H](OC)c5ccc([N+](=O)[O-])cc5)c4c3O)c(O)c12 : reported IC50 = ?
## Result > 40 µM
